Taken from ChEMBL document CHEMBL1123777.

# Species: Oryctolagus cuniculus
# procedure.text: Ability to relax the electrically stimulated rabbit ear artery was determined
# Type: functional
measure.name: EC50 (nM)

CCCN(CCC)CCc1ccc(O)c2c1C(=O)C(=O)N2 ... 7
CCCN(CCC)CCc1ccc(O)c2[nH]c(O)nc12 ... 9
CCCN(CCC)CCc1ccc(O)c2nc(O)oc12 ... 8
CCCN(CCC)CCc1ccc(O)c(O)c1 ... 80
CCCN(CCC)CCc1ccc(O)c2c1CC(=O)N2 [SKF-89124A] ... 1.8
NCCc1ccc(O)c2nc(O)sc12 ... 30
Oc1ccc(C2CNCCc3c2cc(O)c(O)c3Cl)cc1 (stereo not drawn) ... 1200
CNCCc1ccc(O)c2nc(O)sc12 ... 6
CCCN(CCC)CCc1c(Cl)cc(O)c2nc(O)sc12 ... 50
CCCN(CCC)CCc1ccc(O)c2nc(O)sc12 ... 0.028
CCCN(CCC)CCc1cccc2nc(O)sc12 ... 28
NCCc1cccc2nc(O)sc12 ... 1000
NCCc1ccc(O)c(O)c1 ... 76

----------
# tested.target: D(1A) dopamine receptor (Rattus norvegicus, UniProt P18901)
# Sequence (P18901 whole entry): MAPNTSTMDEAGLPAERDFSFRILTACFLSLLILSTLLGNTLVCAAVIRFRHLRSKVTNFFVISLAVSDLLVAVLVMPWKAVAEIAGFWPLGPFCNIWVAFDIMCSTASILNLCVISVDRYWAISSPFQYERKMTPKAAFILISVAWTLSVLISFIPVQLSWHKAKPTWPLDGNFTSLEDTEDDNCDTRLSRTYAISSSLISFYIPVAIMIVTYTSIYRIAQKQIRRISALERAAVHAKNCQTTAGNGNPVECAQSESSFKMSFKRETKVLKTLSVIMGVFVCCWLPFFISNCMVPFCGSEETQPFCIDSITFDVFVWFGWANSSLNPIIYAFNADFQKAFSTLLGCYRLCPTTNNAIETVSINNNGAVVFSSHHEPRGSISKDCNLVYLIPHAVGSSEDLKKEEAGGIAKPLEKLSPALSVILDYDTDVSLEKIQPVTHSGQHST
# procedure.text: Dopamine receptor D1 agonist efficacy was measured with stimulation of dopamine-sensitive rat adenylate cyclase in caudate membranes. Partial agonist, maximum effect 59% of dopamine maximum effect
# Assay type: functional, cell membranes, Membrane
pEC50: −log10 of the molar value.
measure.name: pEC50

NCCc1ccc(O)c2c1CC(=O)N2 ... 5.33

----------
# tested.target: D(2) dopamine receptor (Bos taurus)
# Sequence (P20288 whole entry): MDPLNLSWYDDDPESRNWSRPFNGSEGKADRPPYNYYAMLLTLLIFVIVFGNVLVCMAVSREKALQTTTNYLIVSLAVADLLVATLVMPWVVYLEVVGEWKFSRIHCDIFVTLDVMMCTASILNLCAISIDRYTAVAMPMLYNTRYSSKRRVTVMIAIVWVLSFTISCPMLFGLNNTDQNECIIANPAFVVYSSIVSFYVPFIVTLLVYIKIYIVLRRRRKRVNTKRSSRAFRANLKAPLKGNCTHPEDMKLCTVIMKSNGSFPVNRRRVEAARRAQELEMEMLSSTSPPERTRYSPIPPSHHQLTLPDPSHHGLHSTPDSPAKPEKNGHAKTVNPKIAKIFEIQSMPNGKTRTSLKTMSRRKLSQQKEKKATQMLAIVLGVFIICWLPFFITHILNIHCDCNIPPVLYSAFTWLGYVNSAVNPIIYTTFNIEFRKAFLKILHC
# procedure.text: Displacement of [3H]spiroperidol from homogenized bovine pituitary Dopamine receptor D2
# log10 of IC50 values compiled below
measure.name: log10 of IC50 (log10 of the value in µM)

CCCN(CCC)CCc1ccc(O)c2nc(O)sc12 ... -1.31
CCCN(CCC)CCc1ccc(O)c2[nH]c(O)nc12 ... 0.00
CCCN(CCC)CCc1ccc(O)c2nc(O)oc12 ... 0.08
CCCN(CCC)CCc1cccc2c1CC(=O)N2 ... 0.83
CCCN(CCC)CCc1ccc(O)c2c1CC(=O)N2 [SKF-89124A] ... -0.28
NCCc1ccc(O)c2nc(O)sc12 ... 0.30
CCCN(CCC)CCc1cccc2nc(O)sc12 ... 0.00
NCCc1ccc(O)c2c1CC(=O)N2 ... 0.69
CCCN(CCC)CCc1ccc(O)c2c1C(=O)C(=O)N2 ... -0.25

----------
# tested.target: D(1A) dopamine receptor (Rattus norvegicus)
# procedure.text: Dopamine receptor D1 agonist efficacy was measured with stimulation of dopamine-sensitive rat adenylate cyclase in caudate membranes. Partial agonist, maximum effect 60% of dopamine maximum effect.
# Type: functional, cell membranes, Membrane
pEC50: −log10 of the molar value.
measure.name: pEC50

NCCc1ccc(O)c2nc(O)sc12 ... 6.53

----------
# tested.target: D(1A) dopamine receptor (Rattus norvegicus, UniProt P18901)
# procedure.text: Dopamine receptor D1 agonist efficacy was measured with stimulation of dopamine-sensitive rat adenylate cyclase in caudate membranes
# Type: functional, cell membranes, Membrane
pEC50: −log10 of the molar value.
measure.name: pEC50

CCCN(CCC)CCc1ccc(O)c(O)c1 ... 4.90
